- assay_summary: JC-1 mitochondrial potential readout, lung cancer cells – cell-based, A549, JC-1 fluorescence, basal, 24 h, 100 nL, profiling panel (AID 1138);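 also: A549 lung adenocarcinoma cells under basal conditions with no added stimulus; test concentration not given here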
- study_conditions: higher = more signal
Criterion: z-score meeting or surpassing 0.2. Met: satisfied. Not met: not satisfied.

See these solved cases before continuing.
molecule | answer_label
CC(C)N1C(=O)c2ccccc2[C@](C)(C(=O)O)[C@@H]1c1ccc(CO)cc1 | not satisfied
CCCc1cc2c(n1Cc1ccc(OC)cc1)C(C)C1CN(C(=O)c3ccccc3)C(C)(C(=O)OC)C21 (stereo not given) | satisfied
C[N+](C)(C)CCCCCCNC(=O)[C@H]1C[C@H]2C(=O)N3CCC[C@H]3C(=O)N2[C@H]1c1cccc(OCCO)c1 | not satisfied
COC(=O)[C@@]1(Cc2ccc(F)cc2)[C@H]2c3cc(C(=O)N(C)C)n(Cc4ccc(C)c(F)c4F)c3C[C@H]2CN1C(=O)c1ccccc1 | satisfied
C[C@]12C(=O)N(CCCCCO)[C@@H]3C(=O)N(c4ccc(Cl)cc4)CC=CC31O[C@@H]1/C=C\CCCOC(=O)C12 (stereo not given in full) | satisfied
COCCOC(=O)N1C(=O)[C@@]2(c3ccccc31)[C@H](c1ccc(OCCO)cc1)N1[C@H](c3ccccc3)[C@H](c3ccccc3)OC(=O)[C@H]1[C@@H]2C(=O)NC[C@H](O)c1ccccc1 | satisfied

API: the following record is the query input.
Problem: Record COc1ccccc1CN1C(=O)c2ccccc2[C@@]2(Cc3ccccc3N(C3CC3)C2=O)[C@@H]1c1ccc(CO)cc1 ; criterion: z-score no lower than 0.2. Met?
Solution: not satisfied

* * *

The entries below are paired with their reported z-score.
- assay_summary: plasmodial surface anion channel blockers, osmotic lysis – cell-based, P. falciparum Indochina, OD700, 18 h, primary screen (AID 1157)
- study_conditions: P. falciparum Indochina infected erythrocytes, osmotic lysis OD700, 18 h; higher = more signal, called active from +8 up or from −8 down
Calls of active or inactive are those of the source.

Solved cases (5 shown):
compound | z-score
COc1ccc([Si](C)(C)[C@H]2[C@H](CCn3cc(CCO)nn3)O[C@@]3(C(=O)N(Cc4cccc(N5C(=O)c6cccc7cccc5c67)c4)c4ccccc43)[C@@H]2C)cc1 | 1.36 (inactive)
CCCC=C(CCC)[C@@H](NC(=O)Cc1ccccc1)c1ccc(C(=O)OC)cc1 | 0.25 (inactive)
CCN(CC)c1ccc(N2CC=CC34O[C@@H]5/C=C\CCCOC(=O)C5[C@H]3C(=O)N(CCCCCO)[C@@H]4C2=O)cc1 (some centres undefined) | -0.28 (inactive)
O=C1C2C=CC(C(O)c3ccc(Br)cc3)N(Nc3ccccc3)C2C(=O)N1c1ccccc1 (centres undefined) | 1.25 (inactive)
CC(C)=CCCC(C)=CC(O)C1C=CC2C(=O)N(c3ccccc3)C(=O)C2N1Nc1ccc([N+](=O)[O-])cc1 (centres undefined) | 1.44 (inactive)

Problem: Tell me the measured z-score of [N-]=[N+]=NCc1ccccc1C[C@]1(C(=O)NCCN2CCOCC2)N=C(c2ccc(OCCCO)cc2)O[C@H]1c1ccccc1 , please.
Solution: 1.11 (inactive)

Problem: Now the same for COc1ccccc1CN1C(=O)c2ccccc2[C@@H](C(=O)NCC(C)C)[C@@H]1c1ccc(CO)cc1
Solution: 0.206 (inactive)

Problem: Now the same for C=C(COC)C(=O)CC[C@H](OC(=O)c1ccccc1-c1ccccc1C(=O)O)c1ccc(OCCO)cc1
Solution: 0.626 (inactive)

Problem: Now the same for O=C1CSC(c2cccc([N+](=O)[O-])c2)N1c1ccccc1 (centres undefined)
Solution: -0.139 (inactive)

Problem: Now the same for O=C1O[C@@H](c2ccccc2)[C@@H](c2ccccc2)N2[C@@H](c3ccc(O)cc3)[C@]3(C(=O)Nc4ccc(C#CC5=CCCCC5)cc43)[C@@H](C(=O)Nc3nc4ccccc4s3)[C@H]12
Solution: 1.6 (inactive)

Problem: Now the same for CC(C)C(CO)N1C(=O)[C@@H]2[C@H]3C(=O)OCC=C[C@H]3OC23C=CCN(Cn2nnc4ccccc42)C(=O)[C@@H]13 (some centres undefined)
Solution: 0.0882 (inactive)

Problem: Now the same for O=C1O[C@H](c2ccccc2)[C@H](c2ccccc2)N2[C@H]1[C@@H](C(=O)NC[C@H](O)c1ccccc1)[C@]1(C(=O)Nc3ccccc31)[C@H]2c1ccccc1OCCO
Solution: -0.343 (inactive)

Problem: Now the same for NC(=O)[C@@H]1[C@H]2C(=O)O[C@H](c3ccccc3)[C@H](c3ccccc3)N2[C@H](c2ccccc2OCCO)[C@@]12C(=O)Nc1ccc(C#CCCO)cc12
Solution: -1.18 (inactive)

* * *

- assay_summary: S. pombe growth modifiers, basal conditions – strain 972, OD600, 24 h, no modulator, primary screen (AID 1090);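 also: basal condition with compound alone and no growth modifier present; test concentration not given here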
- study_conditions: S. pombe 972 growth, higher = more signal, called active from +8 up or from −8 down
Criterion: z-score meeting or surpassing 0.1. Met: 1. Not met: -1.

Problem: Record CC(C)C(CO)N1C(=O)[C@@H]2[C@H]3C(=O)OCC=C[C@H]3OC23C=CCN(Cn2nnc4ccccc42)C(=O)[C@@H]13 (some centres not stated) ; criterion: z-score no lower than 0.1. Met?
Solution: 1

Problem: Now the same for COC(=O)[C@@]1(Cc2ccc(OC)cc2)[C@H]2c3cc(C(=O)N(C)C)n(Cc4cc(C)n(C)n4)c3C[C@H]2CN1C(=O)c1ccccc1
Solution: 1

Problem: Now the same for C=CCC(OC(C)=O)[C@@H]1[C@@H](N(Cc2ccc(-c3cccc(C(F)(F)F)c3)o2)C(=O)c2cccc3ccccc23)c2cc(OCCCO)ccc2N1C(=O)c1ccc(-c2ccccc2)cc1 (some centres not stated)
Solution: -1

* * *

- assay_summary: probe aCHRDL2 binding to arrayed compounds – biochemical, biotinylated probe, 635/667 nm fluorescence, primary screen (AID 1100)
- study_conditions: small-molecule microarray, higher = more signal
Criterion: composite z-score meeting or surpassing -0.04. Met: true. Not met: false.

See these solved cases before continuing.
molecule | answer_label
COc1ccc([Si](C)(C)[C@H]2[C@H](CCO)O[C@@]3(C(=O)N(Cc4cccc(N5CCOC5=O)c4)c4ccccc43)[C@@H]2C)cc1 | false
C[C@@H]1ON(c2ccccc2)[C@H](c2ccccc2)[C@H]1C(=O)N1C(=O)OC[C@H]1Cc1ccccc1 | false
CCN(CC)c1ccc(N2CC=CC34O[C@@H]5/C=C\CCCOC(=O)C5[C@H]3C(=O)N(CCCCCO)[C@@H]4C2=O)cc1 (stereo not given in full) | true
C=CCOC(=O)[C@@H]1[C@H]2C(=O)O[C@H](c3ccccc3)[C@H](c3ccccc3)N2[C@H](c2ccc(OCCOC(=O)[C@H]3C[C@H]4C(=O)N[C@@H](Cc5ccccc5)C(=O)N4[C@H]3c3cccc(OCCO)c3)cc2)[C@@]12C(=O)Nc1ccc(I)cc12 | false

API: the following record is the query input.
Problem: Record COCCOC(=O)N1C(=O)[C@@]2(c3cc(C#CCC(C(=O)OC)C(=O)OC)ccc31)[C@H](c1ccc(OCCO)cc1)N1[C@H](c3ccccc3)[C@H](c3ccccc3)OC(=O)[C@H]1[C@@H]2C(N)=O ; criterion: composite z-score no lower than -0.04. Met?
Solution: true

* * *

- assay_summary: growth effects on S. cerevisiae YJM789 – YJM789 clinical isolate, OD600, 24 h, basal, primary screen (AID 1089);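 also: growth of clinical yeast isolate S. cerevisiae YJM 789 seeded 1000 cells per well; test concentration not given here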
- study_conditions: higher = more signal, called active from +8 up or from −8 down
Criterion: z-score meeting or surpassing -0.01. Met: TRUE. Not met: FALSE.

See these solved cases before continuing.
compound_structure_string | answer_label
[N-]=[N+]=NCc1ccccc1[C@H]1OC(c2ccc(OCCCO)cc2)=N[C@@]1(Cc1ccccc1)C(N)=O | FALSE
O=C1c2ccccc2[C@](Cc2ccccc2I)(C(=O)NCC(F)(F)F)[C@H](c2ccc(CO)cc2)N1Cc1ccccc1 | FALSE

Problem: Record O=C1N(CCS(=O)(=O)c2ccccc2)c2ccccc2[C@H]2OC(c3ccc(OCCCO)cc3)=N[C@@]12CCS(=O)(=O)c1ccccc1 ; criterion: z-score no lower than -0.01. Met?
Solution: TRUE

Problem: Now the same for C[N+](C)(C)CCCC[C@@H]1NC(=O)[C@H]2C[C@@H](C(=O)NCCCCCCN)[C@@H](c3cccc(OCCO)c3)N2C1=O
Solution: FALSE

Problem: Now the same for COc1ccc([Si](C)(C)[C@H]2[C@H](CCO)O[C@@]3(C(=O)N(Cc4cccc(N5CCOC5=O)c4)c4ccccc43)[C@@H]2C)cc1
Solution: TRUE

Problem: Now the same for COc1ccc(CCNC(=O)[C@@H]2c3ccccc3C(=O)N(Cc3ccccc3C(F)(F)F)[C@H]2c2ccc(CO)cc2)cc1
Solution: FALSE

Problem: Now the same for COC(=O)C(CC#Cc1ccc2c(c1)[C@]1(C(=O)N2)[C@H](C(=O)N2CCc3cc(OC)c(OC)cc3C2)[C@H]2C(=O)O[C@H](c3ccccc3)[C@H](c3ccccc3)N2[C@@H]1c1ccc(O)cc1)C(=O)OC
Solution: TRUE
